Molecular target: Virion infectivity factor (Human immunodeficiency virus type 1 group M subtype B (isolate BH10)) + Virion infectivity factor (Human immunodeficiency virus type 1 group M subtype B (isolate BRU/LAI)) + Virion infectivity factor (Human immunodeficiency virus type 1 group M subtype B (isolate PCV12)) + Virion infectivity factor (Human immunodeficiency virus type 1 group M subtype B (isolate HXB2)) + DNA dC->dU-editing enzyme APOBEC-3G (Homo sapiens) (UniProt P69720+P69721+P69722+P69723+Q9HC16)
Experiment: inhibitors of Vif binding to APOBEC3G peptide, primary screen, biochemical, TR-FRET, GST-Vif 1-94, biotin-A3G peptide, dose response retest (AID 1117319);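 note: Vif residues 1-94 fused to GST binding biotinylated APOBEC3G peptide 110-148; 0% = full assay without inhibitor and 100% = GST in place of GST-Vif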
Details: stronger effect = higher value
Hit rate of the full screen: of about 260,000 compounds, about 1,500 (0.58%) were called active. Inconclusive results (about 5%) are left out. A selection follows. Potency and affinity values are given separately.
Each item that follows carries a reported inhibition.
Return type: number; implicit unit %.

Compound	Value unit	Observed
Cc1noc(C(=O)NCC2CCCO2)c1Cl (configuration not stated)	%	2.96
CC1CNC(=S)N(c2ccc(F)cc2)C1=O (configuration not stated)	%	-6.26

What value of inhibition has been reported for the following compound? COC(=O)c1cccc(NC(=O)CSCc2ccccc2)c1
6.61

What value of inhibition has been reported for the following compound? COc1ccc(OC)c(NC(=O)c2ccccc2N(Cc2ccccc2)S(C)(=O)=O)c1
7.69

What value of inhibition has been reported for the following compound? CC1=C/C(=N\OS(=O)(=O)c2ccccc2)C(C)=CC1=O
19.9

What value of inhibition has been reported for the following compound? CCCCC(=O)NC(=S)Nc1ccccc1N1CCCCC1
1.96

What value of inhibition has been reported for the following compound? O=c1cc(-c2ccccc2Cl)oc2cc(O)cc(O)c12
-0.34
